IC50 for PYK2 (Homo sapiens (Human), UniProt Q14289) - collated from the literature.

Exercise: Lab request: please report IC50 under test system PYK2 (Homo sapiens (Human), UniProt Q14289) for COc1cc(N2CCOCC2)ccc1Nc1nc2c(c(Nc3ccccc3S(=O)(=O)C(C)C)n1)CCN2
Solution: < 0.05 µM

Exercise: Lab request: please report IC50 under test system PYK2 (Homo sapiens (Human), UniProt Q14289) for COc1cc(-n2ccccc2=O)ccc1Nc1nc2c(c(Nc3ccccc3S(=O)(=O)NC(C)C)n1)CCN2
Solution: < 0.02 µM

Exercise: Lab request: please report IC50 under test system PYK2 (Homo sapiens (Human), UniProt Q14289) for Cn1cc(C(F)(F)F)c(-c2ccc(S(=O)(=O)NCc3c[nH]c4ncccc34)s2)n1
Solution: ≤ 10 µM

Exercise: Lab request: please report IC50 under test system PYK2 (Homo sapiens (Human), UniProt Q14289) for CCNS(=O)(=O)c1ccccc1Nc1nc(Nc2ccc(N3CCOCC3)cc2OC)nc2c1C(C)(C)CN2
Solution: < 0.02 µM

Exercise: Lab request: please report IC50 under test system PYK2 (Homo sapiens (Human), UniProt Q14289) for O=C(c1ccc(O)cc1Cl)c1c[nH]c2ncc(Br)cc12
Solution: ≤ 10 µM

Exercise: Lab request: please report IC50 under test system PYK2 (Homo sapiens (Human), UniProt Q14289) for Cc1c[nH]c(/C=C2\C(=O)Nc3ccc(Cl)cc32)c1CCC(=O)O
Solution: 23.9 µM

Exercise: Lab request: please report IC50 under test system PYK2 (Homo sapiens (Human), UniProt Q14289) for COC(=O)Nc1ccc(F)c(C(=O)c2c[nH]c3ncc(-c4cccnc4)cc23)c1F
Solution: ≤ 10 µM

Exercise: Lab request: please report IC50 under test system PYK2 (Homo sapiens (Human), UniProt Q14289) for COC(c1c(F)ccc(NS(=O)(=O)C(C)C)c1F)c1c[nH]c2ncc(Br)cc12 (centres unmarked)
Solution: ≤ 10 µM

Exercise: Lab request: please report IC50 under test system PYK2 (Homo sapiens (Human), UniProt Q14289) for COc1cc(N2CCOCC2)ccc1Nc1nc2c(c(Nc3ccccc3S(=O)(=O)Nc3ccccc3)n1)C1(CC1)CN2
Solution: < 0.2 µM

Exercise: Lab request: please report IC50 under test system PYK2 (Homo sapiens (Human), UniProt Q14289) for CCCCNS(=O)(=O)c1ccccc1Nc1nc(Nc2ccc(N3CCOCC3)cc2OC)nc2c1C(C)(C)CN2
Solution: < 0.02 µM

Exercise: Lab request: please report IC50 under test system PYK2 (Homo sapiens (Human), UniProt Q14289) for CNC(=O)c1ccccc1Nc1nc(Nc2ccc(N3CCOCC3)c3c2OCCO3)nc2c1CCN2
Solution: < 0.2 µM

Exercise: Lab request: please report IC50 under test system PYK2 (Homo sapiens (Human), UniProt Q14289) for CNC(=O)c1ccccc1Nc1nc(Nc2ccc(N3CCOCC3)cc2OC)nc2c1[C@H](C)CN2
Solution: < 0.02 µM

Exercise: Lab request: please report IC50 under test system PYK2 (Homo sapiens (Human), UniProt Q14289) for CNS(=O)(=O)c1ccc2c(c1)/C(=C/c1[nH]c(C)c(C(=O)O)c1CCCN(C)C)C(=O)N2
Solution: 2.18 µM

Exercise: Lab request: please report IC50 under test system PYK2 (Homo sapiens (Human), UniProt Q14289) for CCNS(=O)(=O)c1ccccc1Nc1nc(Nc2ccc(N3CCOCC3)cc2OC)nc2c1CCN2
Solution: < 0.02 µM

Exercise: Lab request: please report IC50 under test system PYK2 (Homo sapiens (Human), UniProt Q14289) for Clc1cccc(Nc2ccc3cc[nH]c3n2)c1
Solution: ≤ 10 µM

Exercise: Lab request: please report IC50 under test system PYK2 (Homo sapiens (Human), UniProt Q14289) for O=C1Nc2ccc(C(=O)O)cc2/C1=C/c1c[nH]c2ccccc12
Solution: 2.57 µM

Exercise: Lab request: please report IC50 under test system PYK2 (Homo sapiens (Human), UniProt Q14289) for CN(C)S(=O)(=O)c1ccc2c(c1)/C(=C/c1ccc3[nH]ccc3c1)C(=O)N2
Solution: > 100 µM

Exercise: Lab request: please report IC50 under test system PYK2 (Homo sapiens (Human), UniProt Q14289) for COc1ccc2c(c1)NC(=O)/C2=C\c1[nH]cc(C)c1CCC(=O)O
Solution: 2.89 µM

Exercise: Lab request: please report IC50 under test system PYK2 (Homo sapiens (Human), UniProt Q14289) for CCCOc1ccc(Nc2cnc3[nH]ccc3c2)cc1
Solution: ≤ 10 µM

Exercise: Lab request: please report IC50 under test system PYK2 (Homo sapiens (Human), UniProt Q14289) for COc1cc(N2CCOCC2)ccc1Nc1nc2c(c(Nc3ccccc3NC(C)=O)n1)C1(CC1)CN2
Solution: < 0.05 µM

Exercise: Lab request: please report IC50 under test system PYK2 (Homo sapiens (Human), UniProt Q14289) for COc1cc(N2CCOCC2)ccc1Nc1nc2c(c(Nc3ccccc3S(=O)(=O)Nc3ccccc3)n1)C(C)(C)CN2
Solution: < 0.5 µM

Exercise: Lab request: please report IC50 under test system PYK2 (Homo sapiens (Human), UniProt Q14289) for CNC(=O)c1ccccc1Nc1nc(Nc2cccc3ccoc23)nc2c1CCN2
Solution: < 0.1 µM

Exercise: Lab request: please report IC50 under test system PYK2 (Homo sapiens (Human), UniProt Q14289) for NC(=O)CCc1c(/C=C2\C(=O)Nc3ccccc32)[nH]c2c1CCCC2
Solution: 2.83 µM

Exercise: Lab request: please report IC50 under test system PYK2 (Homo sapiens (Human), UniProt Q14289) for COc1cc(N2CCCC(O)C2)ccc1Nc1nc2c(c(Nc3ccccc3S(=O)(=O)NC(C)C)n1)CCN2 (centres unmarked)
Solution: < 0.05 µM

Exercise: Lab request: please report IC50 under test system PYK2 (Homo sapiens (Human), UniProt Q14289) for CC(C)NS(=O)(=O)c1ccccc1Nc1nc(Nc2ccc(N3CCOCC3)nc2)nc2c1CCN2
Solution: < 0.02 µM

Exercise: Lab request: please report IC50 under test system PYK2 (Homo sapiens (Human), UniProt Q14289) for COc1cc(N2CCOCC2)ccc1Nc1nc2c(c(Nc3ccccc3S(=O)(=O)NC3CCCC3)n1)C(C)CN2 (racemic)
Solution: < 0.05 µM

Exercise: Lab request: please report IC50 under test system PYK2 (Homo sapiens (Human), UniProt Q14289) for CCCC(=O)Nc1ccc(F)c(C(OC)c2c[nH]c3ncc(OC)cc23)c1F (centres unmarked)
Solution: ≤ 10 µM

Exercise: Lab request: please report IC50 under test system PYK2 (Homo sapiens (Human), UniProt Q14289) for Cc1occc1Sc1c[nH]c2ncccc12
Solution: ≤ 10 µM

Exercise: Lab request: please report IC50 under test system PYK2 (Homo sapiens (Human), UniProt Q14289) for COc1cc(OCCN2CCOCC2)ccc1Nc1nc2c(c(Nc3ccccc3S(=O)(=O)NC(C)C)n1)CCN2
Solution: < 0.02 µM

Exercise: Lab request: please report IC50 under test system PYK2 (Homo sapiens (Human), UniProt Q14289) for CC(C)S(=O)(=O)Nc1ccc(F)c(C(=O)c2c[nH]c3ncc(-c4cccnc4)cc23)c1F
Solution: ≤ 10 µM

Exercise: Lab request: please report IC50 under test system PYK2 (Homo sapiens (Human), UniProt Q14289) for C=CCNS(=O)(=O)c1ccccc1Nc1nc(Nc2ccc(N3CCOCC3)cc2OC)nc2c1C1(CC1)CN2
Solution: < 0.02 µM

Exercise: Lab request: please report IC50 under test system PYK2 (Homo sapiens (Human), UniProt Q14289) for CC(C)NS(=O)(=O)c1ccccc1Nc1nc(Nc2ccc(N3CCOCC3)cc2)nc2c1CCN2
Solution: < 0.02 µM

----------
IC50 for PYK2 (Homo sapiens (Human)) - collated from the literature.

Exercise: Lab request: please report IC50 under test system PYK2 (Homo sapiens (Human)) for CNC(=O)c1ccccc1Nc1nc(Nc2cccc3c2ccn3CCCN2CCOCC2)nc2c1CCN2
Solution: < 0.2 µM

Exercise: Lab request: please report IC50 under test system PYK2 (Homo sapiens (Human)) for Cc1[nH]c2ccccc2c1/C=C1\C(=O)Nc2ccc(S(N)(=O)=O)cc21
Solution: > 100 µM

Exercise: Lab request: please report IC50 under test system PYK2 (Homo sapiens (Human)) for CC(C)NS(=O)(=O)c1ccccc1Nc1nc(Nc2ccc(C(=O)N(C)C)cc2)nc2c1CCN2
Solution: < 0.02 µM

Exercise: Lab request: please report IC50 under test system PYK2 (Homo sapiens (Human)) for CN(C)c1cccc(Nc2ccnc3[nH]ccc23)c1
Solution: ≤ 10 µM

Exercise: Lab request: please report IC50 under test system PYK2 (Homo sapiens (Human)) for Oc1cccc(Cc2c[nH]c3ncc(-c4ccsc4)cc23)c1
Solution: ≤ 10 µM

Exercise: Lab request: please report IC50 under test system PYK2 (Homo sapiens (Human)) for CCC(C)NS(=O)(=O)c1ccccc1Nc1nc(Nc2ccc(N3CCOCC3)cc2OC)nc2c1C(C)(C)CN2 (centres unmarked)
Solution: < 0.02 µM

Exercise: Lab request: please report IC50 under test system PYK2 (Homo sapiens (Human)) for COc1cc(N2CCOCC2)ccc1Nc1nc2c(c(Nc3ccccc3NC(C)=O)n1)C(C)CN2 (racemic)
Solution: < 0.2 µM

Exercise: Lab request: please report IC50 under test system PYK2 (Homo sapiens (Human)) for CCOC(=O)c1c(C)[nH]c(/C=C2\C(=O)Nc3ccc(S(N)(=O)=O)cc32)c1CCCN1CCN(C)CC1
Solution: 4.21 µM

Exercise: Lab request: please report IC50 under test system PYK2 (Homo sapiens (Human)) for CCOc1cccc(Cc2c[nH]c3ncc(-c4ccsc4)cc23)c1
Solution: ≤ 10 µM

Exercise: Lab request: please report IC50 under test system PYK2 (Homo sapiens (Human)) for Clc1cccc(Nc2ccnc3[nH]ccc23)c1
Solution: ≤ 10 µM

Exercise: Lab request: please report IC50 under test system PYK2 (Homo sapiens (Human)) for O=S(=O)(NCc1c[nH]c2ncccc12)c1ccsc1
Solution: ≤ 10 µM

Exercise: Lab request: please report IC50 under test system PYK2 (Homo sapiens (Human)) for O=S(=O)(NCc1c[nH]c2ncccc12)c1cc(Cl)c(Cl)s1
Solution: ≤ 10 µM

Exercise: Lab request: please report IC50 under test system PYK2 (Homo sapiens (Human)) for CNS(=O)(=O)c1ccccc1Nc1nc(Nc2ccc(N3CCOCC3)cc2OC)nc2c1C1(CC1)CN2
Solution: < 0.02 µM

Exercise: Lab request: please report IC50 under test system PYK2 (Homo sapiens (Human)) for CNC(=O)c1ccccc1Nc1nc(Nc2cc(OC)c(OC)c(OC)c2)nc2c1C(C)(C)CN2
Solution: < 0.2 µM

Exercise: Lab request: please report IC50 under test system PYK2 (Homo sapiens (Human)) for CCNS(=O)(=O)c1ccccc1Nc1nc(Nc2ccc(N3CCOCC3)cc2OC)nc2c1C1(CC1)CN2
Solution: < 0.02 µM

Exercise: Lab request: please report IC50 under test system PYK2 (Homo sapiens (Human)) for O=C(O)CCc1c(/C=C2\C(=O)Nc3cc(Cl)ccc32)[nH]c2c1CCCC2
Solution: 10.7 µM

Exercise: Lab request: please report IC50 under test system PYK2 (Homo sapiens (Human)) for NS(=O)(=O)c1ccc2c(c1)/C(=C/c1c[nH]c3ccccc13)C(=O)N2
Solution: 14.8 µM

Exercise: Lab request: please report IC50 under test system PYK2 (Homo sapiens (Human)) for CNC(=O)c1ccc2c(c1Nc1nc(Nc3ccc(N4CCOCC4)cc3OC)nc3c1CCN3)OCO2
Solution: > 1 µM

Exercise: Lab request: please report IC50 under test system PYK2 (Homo sapiens (Human)) for CCCS(=O)(=O)Nc1ccc(F)c(Cc2c[nH]c3ncc(OC)cc23)c1F
Solution: ≤ 10 µM

Exercise: Lab request: please report IC50 under test system PYK2 (Homo sapiens (Human)) for CNC(=O)c1ccccc1Nc1nc(Nc2cc(C)nn2C)nc2c1CCN2
Solution: < 0.5 µM

Exercise: Lab request: please report IC50 under test system PYK2 (Homo sapiens (Human)) for COc1cc(N2CCS(=O)(=O)CC2)ccc1Nc1nc2c(c(Nc3ccccc3S(=O)(=O)NC(C)C)n1)CCN2
Solution: < 0.02 µM

Exercise: Lab request: please report IC50 under test system PYK2 (Homo sapiens (Human)) for COc1cc(N2CCOCC2)ccc1Nc1nc2c(c(Nc3ccccc3S(=O)(=O)NCCO)n1)C1(CC1)CN2
Solution: > 1 µM

Exercise: Lab request: please report IC50 under test system PYK2 (Homo sapiens (Human)) for O=C(c1cc(O)ccc1F)c1c[nH]c2ncc(-c3cccs3)cc12
Solution: ≤ 10 µM
